The compounds listed here are annotated with their logD.
- protocol details: Shake-flask logD7.4
- Assay type: physicochemical
- experimental parameters: pH 7.4
measurement type: logD

INSERT INTO results (compound, measurement_type, measurement) VALUES
  ('Cc1ccc2nc(C3CCC3)n(-c3ccc4[nH]c(=O)sc4c3)c2n1 [Compound 8]', 'logD', 2.3),
  ('Cc1ccc2nc(C3CCC3)n(-c3ccc4[nH]ncc4c3)c2n1 [Compound 15]', 'logD', 2.5);
